# METHOD_SUMMARY: Phase I metabolic stability in rat liver microsomes
# Assay type: in vitro ADME
# CONDITION_SUMMARY: 60 min; rat liver microsomes lacking NADPH
Consider the following molecules; for each one, report its Phase I in Liver Microsomes, Negative Control.
The reply should be a number in %, with the unit left off.

Item under review: Cl.Cl.OC(CNC1CCN(CCSC(c2ccc(F)cc2)c2ccc(F)cc2)CC1)Cc1ccccc1 (centres unmarked) [JBG01-061] . Reported Phase I in Liver Microsomes, Negative Control? 109

Item under review: Cl.Cl.OC(Cc1ccccc1)CN1CCC(NCCSC(c2ccc(F)cc2)c2ccc(F)cc2)CC1 (centres unmarked) [JBG01-058] . Reported Phase I in Liver Microsomes, Negative Control? 96

Item under review: CC(O)CN1[C@H](C)CN(CCSC(c2ccc(F)cc2)c2ccc(F)cc2)C[C@@H]1C (some centres unmarked) [RDS03-094] . Reported Phase I in Liver Microsomes, Negative Control? 109

Item under review: Cl.Cl.[O-][S+](CCNC1CCN(Cc2ccc(F)cc2)CC1)C(c1ccc(F)cc1)c1ccc(F)cc1 (centres unmarked) [JBG02-054] . Reported Phase I in Liver Microsomes, Negative Control? 102

Item under review: O=C(c1ccc(F)cc1)N1CCC(NCCSC(c2ccc(F)cc2)c2ccc(F)cc2)CC1 [JBG02-028] . Reported Phase I in Liver Microsomes, Negative Control? 101

Item under review: [O-][S+](CCNC1CCN(CC(O)Cc2ccccc2)CC1)C(c1ccc(F)cc1)c1ccc(F)cc1 (centres unmarked) [JBG02-057] . Reported Phase I in Liver Microsomes, Negative Control? 100

Item under review: CC(O)CN1[C@H](C)CN(CC[S+]([O-])C(c2ccc(F)cc2)c2ccc(F)cc2)C[C@@H]1C (some centres unmarked) [RDS04-010] . Reported Phase I in Liver Microsomes, Negative Control? 108

Item under review: OC(CN1CCC2(CCN(CCSC(c3ccc(F)cc3)c3ccc(F)cc3)CC2)C1)c1ccccc1 (centres unmarked) [RDS04-002] . Reported Phase I in Liver Microsomes, Negative Control? 125
